Values were extracted from patent US10647680B2.

Assay: In vivo pharmacokinetics in rats
Design: species or system rat
Conditions: male, SD, rat, plasma, po, 10 mg/kg, orally, 10 mg/kg, individual animals 201-203, read-out: Cmax
Structures can show the parent of a compound that is named as a salt.
property name: Cmax (ng/mL)

* COCCOc1ccc2c(c1)ncn2-c1ccc(NC(=O)Nc2cc(C(C)(C)C)n[nH]2)cc1 [Compound 77 Mesylate] | 977

====

Experiment: Bidirectional transmembrane transport and P-gp efflux in Caco-2 monolayer cell model
Type: in vitro ADME
Conditions: human, Caco-2, pH 7.4, Caco-2 monolayer cell model, transmembrane permeability; read-out: Papp(A→B) value (conclusions under the table)
property name: Papp A→B at 2 h

• COCCOc1ccc2c(c1)ncn2-c1ccc(NC(=O)Nc2cc(C(C)(C)C)n[nH]2)cc1 = 1 to 10 ×10⁻⁶ cm/s
• C[C@H]1O[C@@H](O[C@H]2[C@@H](O)C[C@H](O[C@H]3[C@@H](O)C[C@H](O[C@H]4CC[C@@]5(C)[C@H](CC[C@@H]6[C@@H]5C[C@@H](O)[C@]5(C)[C@@H](C7=CC(=O)OC7)CC[C@]65O)C4)O[C@@H]3C)O[C@@H]2C)C[C@H](O)[C@@H]1O = < 1 ×10⁻⁶ cm/s
